- test: Cmax in mouse at 10 mg/kg, po
- Format: ADME, organism-based
- Set-up: dose 10 mg/kg, route oral
- measurementContext: in vivo
measuredAttribute: Cmax (nM)
Write it as a number; the unit nM goes unstated.

N[C@@H]1CC[C@@H](n2cc(-c3ccc4cc[nH]c4c3)c(C(F)(F)F)n2)C1 | 1990

We now examine a further molecule.
I'd like to know its Cmax. The molecule in question is CN(C)Cc1ccc(-n2cc(-c3ccc4cc[nH]c4c3)c3c(Cl)ccnc32)cc1
502

###

Listed here are compounds together with their documented bioavailability.
- test: Oral bioavailability in mouse at 10 mg/kg
- Type: ADME, organism-based
- measurementContext: in vivo
Dear colleague, please return just the value in %, with no unit written.

CN(C)Cc1ccc(-n2cc(-c3ccc4cc[nH]c4c3)c3c(Cl)ccnc32)cc1 | 61

Okay, now this compound:
Tell me the measured bioavailability of N[C@@H]1CC[C@@H](n2cc(-c3ccc4cc[nH]c4c3)c(C(F)(F)F)n2)C1 , please.
40

###

pIC50: −log10 of the molar value.
Thyroid peroxidase (Homo sapiens, UniProt P07202) measurements of pIC50, listed per entry.
Sequence (P07202 whole entry): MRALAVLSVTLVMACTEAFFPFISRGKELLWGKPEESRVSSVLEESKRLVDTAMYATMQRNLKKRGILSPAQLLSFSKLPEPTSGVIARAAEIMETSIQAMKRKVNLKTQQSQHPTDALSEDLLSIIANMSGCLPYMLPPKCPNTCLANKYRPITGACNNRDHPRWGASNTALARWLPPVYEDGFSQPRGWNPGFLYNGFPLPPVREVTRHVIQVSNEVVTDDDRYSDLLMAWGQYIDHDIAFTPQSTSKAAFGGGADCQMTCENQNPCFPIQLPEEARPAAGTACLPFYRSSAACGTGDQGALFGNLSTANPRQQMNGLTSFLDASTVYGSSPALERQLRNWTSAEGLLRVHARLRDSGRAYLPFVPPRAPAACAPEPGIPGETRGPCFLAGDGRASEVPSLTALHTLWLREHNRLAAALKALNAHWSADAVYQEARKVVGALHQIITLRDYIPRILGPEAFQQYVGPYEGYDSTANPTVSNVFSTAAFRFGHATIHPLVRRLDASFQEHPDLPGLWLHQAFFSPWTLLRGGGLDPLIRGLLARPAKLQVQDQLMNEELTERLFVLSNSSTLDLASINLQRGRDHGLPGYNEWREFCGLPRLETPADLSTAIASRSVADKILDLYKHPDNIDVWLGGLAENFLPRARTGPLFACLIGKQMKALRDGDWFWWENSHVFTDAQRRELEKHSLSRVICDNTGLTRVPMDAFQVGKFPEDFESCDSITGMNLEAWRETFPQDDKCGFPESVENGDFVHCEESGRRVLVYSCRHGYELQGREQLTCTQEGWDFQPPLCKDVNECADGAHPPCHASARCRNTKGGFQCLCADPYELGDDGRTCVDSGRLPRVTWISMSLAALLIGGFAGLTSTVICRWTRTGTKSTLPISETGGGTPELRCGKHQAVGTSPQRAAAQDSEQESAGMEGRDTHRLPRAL

Consider the reported pIC50 for these molecules:
Nc1ncnc2c1c(-c1ccc3cc[nH]c3c1)cn2-c1ccc(OCCNCCO)cc1 | 4.52
N[C@@H](c1ccc(-n2cc(-c3ccc4cc[nH]c4c3)c(C(F)(F)F)n2)cc1)C(F)(F)F | < 4.52

Item NCCCCn1cc(-c2ccc3cc[nH]c3c2)c(C(F)(F)F)n1 with Thyroid peroxidase (Homo sapiens, UniProt P07202) - pIC50?
< 4.52

Next up: NC(=O)Cn1cc(-c2ccc3cc[nH]c3c2)c(C(F)(F)F)n1
< 4.52

Try the molecule N[C@@H]1CC[C@@H](n2cc(-c3ccc4cc[nH]c4c3)c(C(F)(F)F)n2)C1
< 4.52

###

- systemTested: Myeloperoxidase (Homo sapiens, UniProt P05164)
- test: Inhibition of human plasma myeloperoxidase
pIC50: −log10 of the molar value.
// label = 1 if pIC50 is not less than 6, otherwise 0

Here's what some known entries look like.
N[C@@H]1CC[C@@H](n2cc(-c3ccc4cc[nH]c4c3)c(C(F)(F)F)n2)C1 | 1
NCc1ccc(-n2cc(-c3ccc4cc[nH]c4c3)c(C(F)(F)F)n2)cc1 | 1
FC(F)(F)c1nn(-c2ccc(Cc3nc[nH]n3)cc2)cc1-c1ccc2cc[nH]c2c1 | 0
N[C@@H](c1ccc(-n2cc(-c3ccc4cc[nH]c4c3)c(C(F)(F)F)n2)cc1)C(F)(F)F | 0

Would you kindly look at the next entry?
Textbook exercise: given the entry CN(C)Cc1ccc(-n2cc(-c3ccc4cc[nH]c4c3)c3c(Cl)ccnc32)cc1 , state whether its pIC50 is greater than or equal to 6.
0

###

- systemTested: Myeloperoxidase (Homo sapiens, UniProt P05164)
- Sequence (P05164 whole entry): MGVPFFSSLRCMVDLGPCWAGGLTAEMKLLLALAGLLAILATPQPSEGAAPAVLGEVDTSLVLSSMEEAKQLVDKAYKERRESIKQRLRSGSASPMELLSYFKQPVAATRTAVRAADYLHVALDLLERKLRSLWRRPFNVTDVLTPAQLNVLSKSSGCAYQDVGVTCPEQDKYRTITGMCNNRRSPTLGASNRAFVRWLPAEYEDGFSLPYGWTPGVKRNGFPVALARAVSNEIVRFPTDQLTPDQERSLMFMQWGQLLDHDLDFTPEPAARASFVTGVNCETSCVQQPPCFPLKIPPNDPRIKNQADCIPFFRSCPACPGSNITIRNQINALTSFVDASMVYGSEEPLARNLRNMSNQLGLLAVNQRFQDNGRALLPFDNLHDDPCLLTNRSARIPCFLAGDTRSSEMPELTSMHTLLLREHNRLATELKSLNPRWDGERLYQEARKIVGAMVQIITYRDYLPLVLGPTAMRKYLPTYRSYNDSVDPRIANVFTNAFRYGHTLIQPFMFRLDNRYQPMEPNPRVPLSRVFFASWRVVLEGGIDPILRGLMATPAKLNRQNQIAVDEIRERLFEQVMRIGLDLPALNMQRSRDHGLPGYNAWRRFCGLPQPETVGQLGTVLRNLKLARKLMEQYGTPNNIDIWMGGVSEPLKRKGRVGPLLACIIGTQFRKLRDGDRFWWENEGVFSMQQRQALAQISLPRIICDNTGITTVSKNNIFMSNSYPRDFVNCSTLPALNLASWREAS
- test: Inhibition of myeloperoxidase (unknown origin)
Binarize IC50 at 400 nM; below is Met, at or above is Not met.

// below: answered molecules
NC(=O)Cn1cc(-c2ccc3cc[nH]c3c2)c(C(F)(F)F)n1 | Not met
NCCCCn1cc(-c2ccc3cc[nH]c3c2)c(C(F)(F)F)n1 | Met
NC(=O)CCn1cc(-c2ccc3cc[nH]c3c2)c(C(F)(F)F)n1 | Not met

Regarding N[C@@H](c1ccc(-n2cc(-c3ccc4cc[nH]c4c3)c(C(F)(F)F)n2)cc1)C(F)(F)F , kindly confirm whether its IC50 is beneath 400 nM.
Not met

And what about the molecule NCc1ccc(-n2cc(-c3ccc4cc[nH]c4c3)c(C(F)(F)F)n2)cc1 ?
Met

Here is the next molecule: NC[C@H]1C[C@H](n2cc(-c3ccc4cc[nH]c4c3)c(C(F)(F)F)n2)C1
Met

###

- test: Plasma protein binding in mouse at 0.5 mg/kg, iv or 10 mg/kg, po
- Assay type: ADME, organism-based
- measurementContext: read-out: PPB (converted)
measuredAttribute: fraction unbound
// print number alone

Which fraction unbound value belongs to N[C@@H]1CC[C@@H](n2cc(-c3ccc4cc[nH]c4c3)c(C(F)(F)F)n2)C1 ?
0.027

###

- test: Volume of distribution at steady state in mouse at 0.5 mg/kg, iv
- Assay type: ADME, organism-based
- measurementContext: in vivo, read-out: Vdss
measuredAttribute: Vd (L/kg)
Report as a plain number; the unit L/kg is understood.

Look up Vd for this compound: N[C@@H]1CC[C@@H](n2cc(-c3ccc4cc[nH]c4c3)c(C(F)(F)F)n2)C1
2.1

###

- systemTested: Myeloperoxidase (Homo sapiens)
- test: Inhibition of myeloperoxidase (unknown origin)
Quick reference for pIC50 among some compounds
The meaning of pIC50 here: minus log10 of the concentration in molar units.

The cases that follow already have their pIC50 on record.
Nc1ncnc2c1c(-c1ccc3cc[nH]c3c1)cn2-c1ccc(OCCNCCO)cc1 | 6.66
N[C@@H]1CC[C@@H](n2cc(-c3ccc4cc[nH]c4c3)c(C(F)(F)F)n2)C1 | 7.15
O=C(O)CCn1cc(-c2ccc3cc[nH]c3c2)c(C(F)(F)F)n1 | 5.28

Need pIC50, item CN(C)Cc1ccc(-n2cc(-c3ccc4cc[nH]c4c3)c3c(Cl)ccnc32)cc1
6.92

Quick one: FC(F)(F)c1nn(-c2ccc(Cc3nc[nH]n3)cc2)cc1-c1ccc2cc[nH]c2c1
6.60
